# Lookup of reported growth keyed by entry
Tested on: SF-268 CNS
Assay: NCI-60 one-dose screen, 48 h (100 = growth as untreated, 0 = no growth, -100 = all killed)
Settings: 10 µM
The panel holds about 83,000 compounds, 20% with a hit somewhere; the sample as a whole holds those more often.
Write the answer as a number in %, unit excluded.

Sample answers from the record:
compound | growth / %
Cc1ccc(S(=O)(=O)Oc2ccc3c4c(c(=O)oc3c2)CCCCC4)cc1 | 77.2
COc1cc(-c2cc(/C=C3\C(=O)Nc4cc(Cl)ccc43)[nH]n2)cc(OC)c1OC | 56.7
N#Cc1cccc(OCc2nc(N)nc(N)c2-c2ccc(Cl)c(Cl)c2)c1 | 28.4
O=C(C[P+](c1ccccc1)(c1ccccc1)c1ccccc1)C[P+](c1ccccc1)(c1ccccc1)c1ccccc1 | -86.3
O=C(Nc1cccc(-n2cc(-c3ccncc3)c(-c3ccc(O)c(Cl)c3)n2)c1)c1ccc(N2CCOCC2)c(C(F)(F)F)c1 | 63.2

*Q* // fetch growth given entry O=C(O)C(SC(C(=O)O)c1ccccc1)c1ccccc1 (stereo unspecified)
*A* 106

*Q* Return growth for the following compound: "Nc1cc2c(cc1Cl)-c1ccc([N+](=O)[O-])cc1/C2=N\O"
*A* 79.1

----------
Test system: OVCAR-3 ovarian
Assay: NCI-60 one-dose screen, 48 h (100 = growth as untreated, 0 = no growth, -100 = all killed)
Details: 10 µM
The panel holds about 83,000 compounds, 20% with a hit somewhere; the sample as a whole holds those more often.
Parameter: growth. Scope: all listed entries.
Hi! Could you send only the number? It should be in %, unit omitted.

*Q* Note growth for the compound shown: "COc1ccc(-c2nn(-c3cccc(NC(=O)c4ccc(Cl)c(Cl)c4)c3)cc2-c2ccncc2)cc1Cl"
*A* 81.9

*Q* Respond only with growth recorded for "COc1ccc(-c2nn(-c3cccc(NC(=O)c4ccc5c(c4)OCCO5)c3)cc2-c2ccncc2)cc1Cl"
*A* 4.99

*Q* Supply measured growth of "CC(C)(Cl)CCC1=C(Cl)C(=O)c2ccccc2C1=O" in your reply.
*A* 22.9

----------
Tested on: SK-MEL-28 melanoma
Test: NCI-60 one-dose screen, 48 h
Settings: 10 µM
Description: Growth inhibition of the SK-MEL-28 human tumor cell line is measured as a screen for anti-cancer activity. Cells are grown in 96 well plates and exposed to the test compound for 48 hours. Compounds are tested at a single concentration, which is 10^-5 M for most compounds. The reported endpoint is percent growth (GI% or GIPRCNT), where numbers from 0 - 100% represent growth inhibition, and numbers from -100% - 0 represent cell death. For example, a value of 40 represents 60% growth inhibition. […]
This is part of a sample that, as a whole, favours compounds with a hit. Of some 83,000 tested, about 20% had one in any assay. Calls of active or inactive are those of the source. Rule for the calls: active = growth percent below 10; inactive = the rest.
Result category, one only: active, inactive

*Q* # fetch the recorded call for "COc1ccc(-n2c(SCc3cc(OC)c(OC)c(OC)c3)nc3ccc(C)cc3c2=O)cc1" here
*A* inactive

*Q* Fill in: this test's call for "Clc1cc2c(c(CSc3nc4ccccc4n4cccc34)c1)OCOC2" is ___
*A* inactive

*Q* Could you kindly confirm the outcome this assay logged for CCOCC(=O)C(C#N)c1ccc(Cl)c(Cl)c1 (configuration not stated) ?
*A* inactive

*Q* Which outcome did this test record for the molecule COc1ccc(OC)c2c1C(=O)CC2C (configuration not stated) ?
*A* inactive

*Q* Could you check what this test reported for CCCCCCCC(C)NCCO (configuration not stated) ?
*A* inactive

*Q* Per the assay record, what outcome was assigned to "Nc1c(C(=O)Nc2ccccc2)sc2nc3c(cc12)CCCC3" ?
*A* inactive

----------
Test system: MDA-MB-231 breast
Assay: NCI-60 one-dose screen, 48 h
Settings: 10 µM
Description: Cells are grown in 96 well plates and exposed to the test compound for 48 hours. Compounds are tested at a single concentration, which is 10^-5 M for most compounds. The reported endpoint is percent growth (GI% or GIPRCNT), where numbers from 0 - 100% represent growth inhibition, and numbers from -100% - 0 represent cell death. For example, a value of 40 represents 60% growth inhibition. A value of 0 means no net growth occurred over the course of the experiment. […]
Compounds without any hit were thinned out: in the full panel of roughly 83,000, 20% have a hit. Calls of active or inactive are those of the source. Rule for the calls: active = growth percent below 10; inactive = the rest.
Entry note: the call must match one of 1 (active), 0 (inactive)

Answered cases to consult:
compound | labelClass
CC(C)=CCc1ccc(O)c(=O)cc1C(C)C | 0
C#Cc1ccc(-n2c(/C=C/c3ccc(Cl)c(F)c3)nc3ncccc3c2=O)cc1 | 1
Cc1ccc(S(=O)(=O)Oc2ccc3c4c(c(=O)oc3c2)CCCCC4)cc1 | 0
Clc1ccc(-c2cn(-c3ccccc3)c(-c3ccccc3)n2)c(Cl)c1 | 1
CC(=O)N1C/C(=C/c2ccc(Cl)cc2)C(=O)/C(=C/c2ccc(Cl)cc2)C1 | 1

*Q* Please let me know the test result on file for "Cc1nc2ccccc2c(N)c1-c1cc(C)c2c(C)nc3ccccc3c2n1" .
*A* 1

*Q* State the result this test recorded for COc1ccc(N2C(=O)C3c4[nH]c5ccc(OCc6ccccc6)cc5c4C4CCC(C(C)C)CC4C3C2=O)cc1 (stereo unspecified) .
*A* 0

----------
Tested on: SW-620 colon
Test: NCI-60 one-dose screen, 48 h (100 = growth as untreated, 0 = no growth, -100 = all killed)
Conditions: 10 µM
Compounds without any hit were thinned out: in the full panel of roughly 83,000, 20% have a hit.
Lab note: anything with growth below 80% is marked Yes; values at 80% or higher are marked No.

Consider the following illustrative entries.
compound | labelClass
O=C1/C(=C\c2ccc(F)cc2)CN(C(=O)c2ccc([N+](=O)[O-])cc2)C/C1=C\c1ccc(F)cc1 | Yes
O=C(N/N=C/c1ccccc1O)C(O)(c1ccccc1)c1ccccc1 | Yes
CCCC(F)C(=O)O (centres undefined) | No
CC(C)=CCc1cc(O)cc2c1OC(C=C(C)C)C1=C2C(=O)C2=C(C1=O)S(=O)(=O)CCN2 (centres undefined) | Yes
COC(=O)C1=NNC(=S)N(c2cc(C)[nH]n2)C(=O)C1 | No
O=C1/C(=C\c2ccc(Br)cc2)CN(C(=O)c2ccccc2F)C/C1=C\c1ccc(Br)cc1 | Yes

*Q* Input "COc1cc2cc3c(nc2cc1OC)CCN3Cc1ccc(NC(=O)Nc2cc(C(F)(F)F)cc(C(F)(F)F)c2)cc1" ; condition: growth strictly below 80%. Does it hold?
*A* No

*Q* Please indicate whether the reported growth of "COc1cccc(C(=O)Nc2ccc(CN3CCc4nc5cc(OC)c(OC)cc5cc43)cc2)c1" is strictly below 80%.
*A* Yes

*Q* Strictly below 80% in growth? "CC(=O)N1C/C(=C/c2ccc(Cl)cc2)C(=O)/C(=C/c2ccc(Cl)cc2)C1"
*A* Yes

*Q* In the record for "CCOC(=O)N/N=C\C(C)=N\NC(=O)OCC" , is growth less than 80%?
*A* No

*Q* I'd appreciate it if you could check whether "COc1cc(Nc2ccnc(NCCCNc3ccnc4cc(Cl)ccc34)n2)cc(OC)c1" has growth smaller than 80%.
*A* Yes

*Q* In plain terms, does Clc1ccc(/C=C2\CCCC3=C2N=C2SC=NN2C3c2ccc(Cl)cc2)cc1 (centres undefined) come in under 80% for growth?
*A* No

*Q* For this compound, is growth lower than 80%? CCCCCCCCCCCCCCCCN(C(C)c1ccccc1)S(=O)(=O)c1ccc(OC)c(N)c1 (centres undefined)
*A* No

*Q* growth under 80%? Item: "Nc1ncn([C@@H]2O[C@H](CO)[C@@H](O)[C@H]2O)c(=O)n1"
*A* Yes

*Q* Lab note: growth threshold 80%. Does this compound come in strictly under it? C=C(C(=O)c1ccccc1)C(NC(C)(C)C)c1ccccc1 (centres undefined)
*A* Yes

*Q* Quick check: does "COc1ccc(-c2cc(-c3ccc(N(C)C)cc3)c(C#N)c(N3CCCC3)n2)cc1" have growth under 80%?
*A* No

*Q* State whether 80% exceeds growth recorded for "COc1cc(-c2cc(C(=O)N3CCN(C(=O)c4ccccc4NCc4cccs4)CC3)nc3cc(-c4ccccc4)nn23)cc(OC)c1OC" .
*A* Yes

*Q* hey, is growth for "COc1cc(C)ccc1C(=O)c1ccc(C)cc1OC" lower than 80% or not?
*A* Yes

*Q* Given "Cc1cc(C)c(CCc2cc(C)c(C)cc2C)cc1C" , is recorded growth strictly lower than 80%?
*A* No

*Q* Determine if "CC(C)(C#N)Nc1ccccc1" shows growth strictly lower than 80%.
*A* No

*Q* Given the entry "CSc1nc(=O)n(Cc2ccc(Cl)cc2)c(=O)[nH]1" , would its reported growth be below 80%?
*A* No

*Q* Determine if "COc1cc(Nc2ncnc(Nc3ccc4c(n3)NC(=O)C(C)(C)O4)n2)cc(OC)c1OC" shows growth strictly lower than 80%.
*A* Yes
